These data points were gathered from patent US20230263822A1.

Assay: Hematology assays in cynomolgus monkeys (Example 45)
Assay type: in vivo
Settings: day −14
Label rule, in plain words: platelet count of 400000 µL⁻¹ and up is t, under 400000 µL⁻¹ is f.

Input line: Evaluate ISIS 416858: MOE gapmer, nucleobases 1275 to 1318 of SEQ ID NO: 1 (Table 8) (antisense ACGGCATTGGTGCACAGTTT; MOE gapmer, wing and gap sizes not given here) : platelet count at minimum 400000 µL⁻¹?
Output line: t

Input line: For ISIS 416850: MOE gapmer, nucleobases 1275 to 1318 of SEQ ID NO: 1 (Table 8) (antisense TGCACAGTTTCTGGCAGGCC; MOE gapmer, wing and gap sizes not given here) then?
Output line: t

Input line: For ISIS 417002: MOE gapmer, nucleobases 1275 to 1318 of SEQ ID NO: 1 (Table 8) (antisense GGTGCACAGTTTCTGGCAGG; MOE gapmer, wing and gap sizes not given here) then?
Output line: t

Input line: For ISIS 416864: MOE gapmer, nucleobases 1275 to 1318 of SEQ ID NO: 1 (Table 8) (antisense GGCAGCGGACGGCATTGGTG; MOE gapmer, wing and gap sizes not given here) then?
Output line: t

Input line: For ISIS 416838: MOE gapmer, nucleobases 1018 to 1042 of SEQ ID NO: 1 (Table 6) (antisense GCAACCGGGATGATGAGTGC; MOE gapmer, wing and gap sizes not given here) then?
Output line: f

---

System: blood coagulation
Assay: PT and aPTT assay in cynomolgus monkeys (Example 46)
Assay type: in vivo
Conditions: Day −14; platelet poor plasma; relative to PBS group
Strand notation (5' to 3'): a small letter for the sugar, then the base; units joined by * are phosphorothioate-linked, units joined directly phosphodiester-linked; [ ] holds rarer units or linkages, { } end groups; capitals alone tell only the bases. e = 2'-O-(2-methoxyethyl) (MOE); [5mC] = 5-methylcytosine; d = 2'-deoxy (DNA)
Assignment: determine reported aPTT ratio relative to PBS group for the given substances.
No unit in the answer, only the number.

Input line: Reported aPTT ratio relative to PBS group for ISIS 416858: MOE gapmer, nucleobases 1275 to 1318 of SEQ ID NO: 1 (Table 8) (antisense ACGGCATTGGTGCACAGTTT; MOE gapmer, wing and gap sizes not given here) : what is it?
Output line: 1.03

Input line: For ISIS 449709: 3-8-3, 4-8-4, 2-10-2, 3-10-3 or 4-10-4 MOE microwalk gapmer (Table 46) (antisense eG*e[5mC]*eA*e[5mC]*dA*dG*dT*dT*dT*d[5mC]*dT*dG*dG*d[5mC]*eA*eG*eG*e[5mC]) then?
Output line: 0.99

Input line: For ISIS 449708: 3-8-3, 4-8-4, 2-10-2, 3-10-3 or 4-10-4 MOE microwalk gapmer (Table 46) (antisense eA*e[5mC]*eA*dG*dT*dT*dT*d[5mC]*dT*dG*dG*e[5mC]*eA*eG) then?
Output line: 1.07

Input line: For ISIS 445522: 5-8-5 or 6-8-6 MOE microwalk gapmer (Table 44) (antisense eG*e[5mC]*eA*e[5mC]*eA*dG*dT*dT*dT*d[5mC]*dT*dG*dG*e[5mC]*eA*eG*eG*e[5mC]) then?
Output line: 0.96

Input line: For ISIS 449707: 3-8-3, 4-8-4, 2-10-2, 3-10-3 or 4-10-4 MOE microwalk gapmer (Table 46) (antisense e[5mC]*eA*e[5mC]*eA*dG*dT*dT*dT*d[5mC]*dT*dG*dG*e[5mC]*eA*eG*eG) then?
Output line: 0.90

---

Assignment: determine reported MCH for the given substances.
Test: Hematology assays in cynomolgus monkeys (Example 46)
Assay type: in vivo
Settings: Day-14
Strand notation (5' to 3'): a small letter for the sugar, then the base; units joined by * are phosphorothioate-linked, units joined directly phosphodiester-linked; [ ] holds rarer units or linkages, { } end groups; capitals alone tell only the bases. e = 2'-O-(2-methoxyethyl) (MOE); [5mC] = 5-methylcytosine; d = 2'-deoxy (DNA)
Output spec: scalar in pg, unitless text.

Input line: Reported MCH for ISIS 445522: 5-8-5 or 6-8-6 MOE microwalk gapmer (Table 44) (antisense eG*e[5mC]*eA*e[5mC]*eA*dG*dT*dT*dT*d[5mC]*dT*dG*dG*e[5mC]*eA*eG*eG*e[5mC]) : what is it?
Output line: 22.6

Input line: For ISIS 449710: 3-8-3, 4-8-4, 2-10-2, 3-10-3 or 4-10-4 MOE microwalk gapmer (Table 46) (antisense e[5mC]*eA*e[5mC]*dA*dG*dT*dT*dT*d[5mC]*dT*dG*dG*d[5mC]*eA*eG*eG) then?
Output line: 23.0

Input line: For ISIS 449707: 3-8-3, 4-8-4, 2-10-2, 3-10-3 or 4-10-4 MOE microwalk gapmer (Table 46) (antisense e[5mC]*eA*e[5mC]*eA*dG*dT*dT*dT*d[5mC]*dT*dG*dG*e[5mC]*eA*eG*eG) then?
Output line: 22.2

Input line: For ISIS 449711: 3-8-3, 4-8-4, 2-10-2, 3-10-3 or 4-10-4 MOE microwalk gapmer (Table 46) (antisense eA*e[5mC]*dA*dG*dT*dT*dT*d[5mC]*dT*dG*dG*d[5mC]*eA*eG) then?
Output line: 22.6

Input line: For ISIS 416850: MOE gapmer, nucleobases 1275 to 1318 of SEQ ID NO: 1 (Table 8) (antisense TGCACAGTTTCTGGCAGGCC; MOE gapmer, wing and gap sizes not given here) then?
Output line: 23.7

---

Tested on: Factor 11 activity
Test: Factor 11 protein activity, F11 assay based on clotting time (Example 45)
Assay type: in vivo, cynomolgus monkeys
Settings: day 50; escalating dose regimen
Label rule, in plain words: percent inhibition of Factor 11 activity, relative to PBS control of 10% and up is TRUE, under 10% is FALSE.

Input line: Evaluate ISIS 417002: MOE gapmer, nucleobases 1275 to 1318 of SEQ ID NO: 1 (Table 8) (antisense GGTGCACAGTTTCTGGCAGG; MOE gapmer, wing and gap sizes not given here) : percent inhibition of Factor 11 activity, relative to PBS control at minimum 10%?
Output line: TRUE

Input line: For ISIS 416858: MOE gapmer, nucleobases 1275 to 1318 of SEQ ID NO: 1 (Table 8) (antisense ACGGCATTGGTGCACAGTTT; MOE gapmer, wing and gap sizes not given here) then?
Output line: TRUE

Input line: For ISIS 416850: MOE gapmer, nucleobases 1275 to 1318 of SEQ ID NO: 1 (Table 8) (antisense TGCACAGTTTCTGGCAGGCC; MOE gapmer, wing and gap sizes not given here) then?
Output line: TRUE

Input line: For ISIS 416838: MOE gapmer, nucleobases 1018 to 1042 of SEQ ID NO: 1 (Table 6) (antisense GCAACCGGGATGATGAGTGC; MOE gapmer, wing and gap sizes not given here) then?
Output line: FALSE

---

Assay: Tolerability in CD1 mice: kidney function, BUN, creatinine (Example 33)
Settings: plasma, 50 mg/kg s.c. twice a week, 2 weeks
Assignment: determine reported Creatinine for the given substances.
Output spec: scalar in mg/dL, unitless text.

Input line: Reported Creatinine for ISIS 416858: MOE gapmer, nucleobases 1275 to 1318 of SEQ ID NO: 1 (Table 8) (antisense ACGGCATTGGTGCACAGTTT; MOE gapmer, wing and gap sizes not given here) : what is it?
Output line: 0.13

Input line: For ISIS 416864: MOE gapmer, nucleobases 1275 to 1318 of SEQ ID NO: 1 (Table 8) (antisense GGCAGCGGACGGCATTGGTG; MOE gapmer, wing and gap sizes not given here) then?
Output line: 0.11

---

Test: Bleeding assay, Surgicutt Jr. device (Example 45)
Assay type: in vivo, cynomolgus monkeys
Set-up: unit not given here
Conditions: day 22; escalating dose regimen
Assignment: determine reported bleeding time for the given substances.
No unit in the answer, only the number.

Input line: Reported bleeding time for ISIS 416858: MOE gapmer, nucleobases 1275 to 1318 of SEQ ID NO: 1 (Table 8) (antisense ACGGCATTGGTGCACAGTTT; MOE gapmer, wing and gap sizes not given here) : what is it?
Output line: 100

Input line: For ISIS 416850: MOE gapmer, nucleobases 1275 to 1318 of SEQ ID NO: 1 (Table 8) (antisense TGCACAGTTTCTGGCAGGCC; MOE gapmer, wing and gap sizes not given here) then?
Output line: 151

Input line: For ISIS 417002: MOE gapmer, nucleobases 1275 to 1318 of SEQ ID NO: 1 (Table 8) (antisense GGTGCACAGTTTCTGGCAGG; MOE gapmer, wing and gap sizes not given here) then?
Output line: 194

Input line: For ISIS 416838: MOE gapmer, nucleobases 1018 to 1042 of SEQ ID NO: 1 (Table 6) (antisense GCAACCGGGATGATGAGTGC; MOE gapmer, wing and gap sizes not given here) then?
Output line: 165

Input line: For ISIS 416864: MOE gapmer, nucleobases 1275 to 1318 of SEQ ID NO: 1 (Table 8) (antisense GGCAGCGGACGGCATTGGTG; MOE gapmer, wing and gap sizes not given here) then?
Output line: 133
